Provenance of the data: paper PMC9090415

Target: P. falciparum apicoplast DNA polymerase (Pf-apPOL) (Plasmodium falciparum)
Sequence (Q8ILY1 entry or part of it): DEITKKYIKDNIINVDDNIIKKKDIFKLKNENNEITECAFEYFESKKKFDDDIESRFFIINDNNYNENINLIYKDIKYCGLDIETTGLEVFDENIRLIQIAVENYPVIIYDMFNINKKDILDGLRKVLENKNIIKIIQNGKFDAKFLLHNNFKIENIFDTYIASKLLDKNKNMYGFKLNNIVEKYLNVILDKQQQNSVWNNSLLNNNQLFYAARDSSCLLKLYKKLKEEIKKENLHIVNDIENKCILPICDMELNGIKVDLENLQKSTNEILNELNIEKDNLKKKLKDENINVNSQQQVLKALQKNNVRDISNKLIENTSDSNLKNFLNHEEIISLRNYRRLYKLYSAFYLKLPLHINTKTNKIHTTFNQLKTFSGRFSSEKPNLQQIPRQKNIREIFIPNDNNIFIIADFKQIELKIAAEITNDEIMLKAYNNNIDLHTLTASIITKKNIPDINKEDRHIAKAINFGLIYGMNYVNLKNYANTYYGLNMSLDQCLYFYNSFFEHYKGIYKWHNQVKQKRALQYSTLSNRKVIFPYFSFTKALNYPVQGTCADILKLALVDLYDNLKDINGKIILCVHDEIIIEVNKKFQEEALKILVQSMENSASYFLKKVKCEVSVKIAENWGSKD
Experiment: Fluorescence-based high-throughput DNA polymerase assay (molecular beacon), primary screen and dose-response
Format: biochemical
Settings: DRC-1; 90'; concentration 80
I'd be grateful if you could share measured % inhibition Apol 90' for these entries.
Express the result in % but write the number alone.

Report % inhibition Apol 90' for CCOC(=O)C(NCc1ccco1)(NC(=O)c1ccco1)C(F)(F)F (stereo not shown) [KU0276119] please.
52.4823

Report % inhibition Apol 90' for COc1cc(/C=C2\S/C(=N/C(C)=O)NC2=O)cc(Br)c1OCC(=O)O [KU0057841] please.
62.7524

Report % inhibition Apol 90' for O=C1c2ccccc2C(=O)N1Oc1ccc([N+](=O)[O-])c([N+](=O)[O-])c1 [Molecule 66] please.
69.1434

Report % inhibition Apol 90' for COc1ccc(C=C2Oc3c(ccc4c3CN(c3ccc5c(c3)OCO5)CO4)C2=O)cc1OC [KU0199426] please.
72.5355

Report % inhibition Apol 90' for Cc1cc(C)c2c(O)nc(SCC(=O)c3ccc(O)c(O)c3)nc2n1 [Molecule 88] please.
90.6466

Report % inhibition Apol 90' for O=C(NCC1CCN(C2CCCC2)CC1)C(=O)NC1CCCC1 [KU0199596] please.
71.081

Report % inhibition Apol 90' for Oc1cccc2ccc(/C=C/c3ccc4c(c3)OCO4)nc12 [KU0025984] please.
87.8493

Report % inhibition Apol 90' for CSC1=C(C#N)C(=C(C#N)C#N)NC(c2ccccc2)=N1 [Molecule 2, CSc1nc([nH]c(=C(C#N)C#N)c1C#N)c1ccccc1] please.
97.3798

Report % inhibition Apol 90' for O=C(Nc1nnc(-c2ccno2)o1)c1ccc2c(c1)OCO2 [KU0171343] please.
60.7945

Report % inhibition Apol 90' for COc1cc(NC(=O)c2ccccc2)c(OC)cc1NC(=O)Cc1cccs1 [KU0032113] please.
83.2869

Report % inhibition Apol 90' for O=[N+]([O-])c1cc2c(cc1CN1CCCCCC1)OCO2 [KU0004987] please.
55.7488

Report % inhibition Apol 90' for O=c1cc(-c2ccccc2)oc2c(O)c(O)ccc12 [Molecule 84, Oc1ccc2c(c1O)oc(cc2=O)c1ccccc1] please.
29.7853

Report % inhibition Apol 90' for O=c1[nH]c2ccc(Br)cc2c(-c2ccccc2)c1C1=NNC(c2ccco2)C1 (stereo not shown) [KU0045540] please.
82.7097

Report % inhibition Apol 90' for COc1cc(Cl)c(C)cc1NC(=O)Cn1ccc2c(=O)[nH]ccc21 [Molecule 33] please.
83.5925

Report % inhibition Apol 90' for O=C(c1c[nH]c2ncccc12)N1CCCCCC1 [Molecule 51, O=C(c1c[nH]c2c1cccn2)N1CCCCCC1] please.
59.6767

Report % inhibition Apol 90' for O=C(Nc1cccc(C(=O)Nc2ccc(S(=O)(=O)[O-])c3cc(S(=O)(=O)[O-])cc(S(=O)(=O)[O-])c23)c1)Nc1cccc(C(=O)Nc2ccc(S(=O)(=O)[O-])c3cc(S(=O)(=O)[O-])cc(S(=O)(=O)[O-])c23)c1.[Na+].[Na+].[Na+].[Na+].[Na+].[Na+] [Molecule 39] please.
98.7402

Report % inhibition Apol 90' for CN(C)C1C(c2ccccc2)=C(c2ccccc2)SC(c2ccccc2)C1[N+](=O)[O-] (stereo not shown) [KU0268387] please.
83.9893

Report % inhibition Apol 90' for CCC(C)NC(=O)c1cc(NC(C)=O)cc2nc(C)ccc12 (stereo not shown) [KU0206314] please.
77.404

Report % inhibition Apol 90' for O=C(Cn1ccc2c(=O)[nH]ccc21)Nc1ccc(Cl)cc1 [Molecule 36, O=C(Cn1ccc2c1cc[nH]c2=O)Nc1ccc(cc1)Cl] please.
82.9478

Report % inhibition Apol 90' for O=C(Nc1nnc(-c2ccno2)o1)c1ccc2ncsc2c1 [Molecule 62, O=C(c1ccc2c(c1)scn2)Nc1nnc(o1)c1ccno1] please.
68.6824

Report % inhibition Apol 90' for CO/N=C(\C(=O)N[C@@H]1C(=O)N2C(C(=O)[O-])=C(CSc3nc(=O)c([O-])nn3C)CSC12)c1csc(N)n1.[Na+].[Na+] (stereo partly shown) [Molecule 83] please.
43.9979

Report % inhibition Apol 90' for O=C(O)c1c(F)c(F)c(-c2c(F)c(F)c(C(=O)O)c(F)c2F)c(F)c1F [KU0008974] please.
50.0149

Report % inhibition Apol 90' for O=C(O)C(=O)Nc1nc(-c2ccc3c(c2)OCCO3)cs1 [Molecule 82, OC(=O)C(=O)Nc1scc(n1)c1ccc2c(c1)OCCO2] please.
46.367

Report % inhibition Apol 90' for COc1cccc(Oc2c(C(F)(F)F)oc3cc(OC(=O)N(C)C)ccc3c2=O)c1 [Molecule 52] please.
63.3235

Report % inhibition Apol 90' for COc1ccc2c(c1)C(c1ccccc1OC)CC(=O)O2 (stereo not shown) [Molecule 38, COc1ccc2c(c1)C(CC(=O)O2)c1ccccc1OC] please.
96.5262

Report % inhibition Apol 90' for COc1ccc(-c2cc3nc4c(c(=O)n3[nH]2)CCN(C(=O)CCc2ccccc2)C4)cc1 [Molecule 17] please.
78

Report % inhibition Apol 90' for O=C(Cn1ccc2c(=O)[nH]ccc21)Nc1cccc(Cl)c1 [Molecule 23, O=C(Cn1ccc2c1cc[nH]c2=O)Nc1cccc(c1)Cl] please.
79.3379

Report % inhibition Apol 90' for Cc1ccc(C)n1-c1ccc(C(=O)NNC(=O)c2ccc3nccnc3c2)cc1 [Molecule 53] please.
79.5478
